- Tested on: CLK2
- study-conditions: concentration: 1 μM, replicates: in singlicate; n = 1;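 also: KINOMEscan kinase panel screen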
measure: %Inh (%)
Dear colleague, please return just the value in %, with no unit written.

Would you please look over these solved cases?
{"compound": "O=C(Nc1ccccc1F)NC1CCN(c2ccnc(Nc3ccc(F)cc3)n2)C1 (stereo not drawn)", "uom": "%", "%Inh": 0}
{"compound": "CSc1nn2c(=O)cc(N3CCOCC3)nc2n1Cc1cccc(Cl)c1Cl", "uom": "%", "%Inh": 0}

Please fill in: %Inh reported for Clc1cccc(-c2nc(Nc3ccncc3)c3ccccc3n2)c1 = 0

Please fill in: %Inh reported for FC(F)(F)c1cc(Nc2nccc(-c3c(-c4ccc(Cl)cc4)nn4ncccc34)n2)ccc1Cl = 22

Please fill in: %Inh reported for Nc1nccc2scc(-c3ccc4c(c3)CCN4C(=O)Cc3cc(F)ccc3F)c12 = 0

Please fill in: %Inh reported for COc1ccc(Nc2nccc(N3CCC(NC(=O)Nc4ccc5c(c4)OCO5)C3)n2)cc1 (stereo not drawn) = 1

Please fill in: %Inh reported for O=c1cc(N2CCOCC2)nc2n(Cc3cccc(Cl)c3)ccn12 = 1

Please fill in: %Inh reported for Cn1cc(-c2ccc3c(c2)CCN3C(=O)Cc2cccc(C(F)(F)F)c2)c2c(N)ncnc21 = 0

Please fill in: %Inh reported for CNc1nccc(-c2c(-c3ccc(F)cc3)ncn2C2CCN(C)CC2)n1 = 3

---

Measured %Inh accompanies every entry in the list below.
- System: CHEK1
- study-conditions: concentration: 1 μM, replicates: in singlicate; n = 1
Dear colleague, please return just the value in %, with no unit written.

Would you please look over these solved cases?
{"compound": "COc1cc2c(Nc3cccc(NC(=O)c4ccccc4)c3)ncnc2cc1OCCCN1CCOCC1", "uom": "%", "%Inh": 0}
{"compound": "CNc1nccc(-c2c(-c3ccc(F)cc3)ncn2CCCN2CCOCC2)n1", "uom": "%", "%Inh": 0}
{"compound": "CN1c2ccc(-c3ccc(C(=O)NCCO)cc3)cc2-c2[nH]ncc2S1(=O)=O", "uom": "%", "%Inh": 0}
{"compound": "Oc1ccc2ncnc(Nc3ccc(OCc4ccccc4)cc3)c2c1", "uom": "%", "%Inh": 8}
{"compound": "Nc1nc(-c2ccc3c(N)n[nH]c3c2)cc(N2CCCCC2)n1", "uom": "%", "%Inh": 0}

Please fill in: %Inh reported for C[C@H]1CC[C@@H](C(=O)Nc2ccccc2)CN1c1cc(-c2ccc3c(N)n[nH]c3c2)nc(N)n1 = 0

Please fill in: %Inh reported for CSc1nn2c(=O)cc(N3CCOCC3)nc2n1Cc1cccc(Cl)c1Cl = 15

Please fill in: %Inh reported for COC(=O)c1cccc(NC(=O)NCCNc2ccnc(Nc3ccc(F)cc3)n2)c1 = 0

Please fill in: %Inh reported for NC(=O)c1sc(-n2cnc3ccccc32)cc1OCc1ccccc1F = 0

Please fill in: %Inh reported for C[C@@H]1CCN(C(=O)CO)C[C@@H]1N(C)c1ncnc2[nH]ccc12 = 0

---

- System: TYK2(JH1domain-catalytic)
- study-conditions: concentration: 1 μM, replicates: in singlicate; n = 1
measure: %Inh (%)
Dear colleague, please return just the value in %, with no unit written.

{"compound": "C[C@@H]1CCN(C(=O)CO)C[C@@H]1N(C)c1ncnc2[nH]ccc12", "%Inh (%)": 90.6}
{"compound": "COc1ccc(Nc2nccc(N3CCC(NC(=O)c4cccc(NC(C)=O)c4)C3)n2)cc1 (centres unmarked) [GSK1379732]", "%Inh (%)": 36}
{"compound": "Fc1cccc(COc2ccc(Nc3ncnc4sc(-c5ccc[nH]5)cc34)cc2Cl)c1 [GW707818]", "%Inh (%)": 17}
{"compound": "Cl.c1ccc(Cn2ccc3cc(Nc4ncnc5ccccc45)ccc32)cc1 [GW275568]", "%Inh (%)": 0}

Shift focus to the following entry.
Please fill in: %Inh reported for Cl.Cn1ccc(-c2cccc(Nc3ccnc4cc(-c5nccs5)ccc34)c2)n1 [GW525701] = 30

---

- Tested on: QSK
- study-conditions: concentration: 1 μM, replicates: in singlicate; n = 1
Measured %Inh accompanies every entry in the list below.
Dear colleague, please return just the value in %, with no unit written.

{"molecule": "CCc1nc(-c2cccc(N(C)S(=O)(=O)c3ccccc3)c2)c(-c2ccnc(Nc3ccc(N4CCN(C(C)=O)CC4)nc3)n2)s1", "%Inh [%]": 1}
{"molecule": "Fc1cccc(COc2ccc(Nc3ncnc4nn5ccccc5c34)cc2Cl)c1", "%Inh [%]": 0}
{"molecule": "COc1ccc(Nc2nccc(N3CCC(NC(=O)c4cccc(NC(C)=O)c4)C3)n2)cc1 (stereo not drawn)", "%Inh [%]": 0}
{"molecule": "C[C@@H]1CCN(C(=O)CO)C[C@@H]1N(C)c1ncnc2[nH]ccc12", "%Inh [%]": 0}
{"molecule": "Cc1cccc(-c2nc(Nc3ccc4[nH]nnc4c3)c3ccccc3n2)n1", "%Inh [%]": 0}
{"molecule": "O=c1cc(N2CCOCC2)nc2n(Cc3cccc(Cl)c3)ccn12", "%Inh [%]": 0}
{"molecule": "COc1ccc(-c2oc3ncnc(N)c3c2-c2ccc(OC)cc2)cc1", "%Inh [%]": 6}
{"molecule": "CN1c2ccc(-c3ccc(C(=O)NCCO)cc3)cc2-c2[nH]ncc2S1(=O)=O", "%Inh [%]": 5}

Shift focus to the following entry.
Please fill in: %Inh reported for Nc1nc(-c2ccc3c(N)n[nH]c3c2)cc(N2CCCCC2)n1 = 0

---

- Tested on: PRKG1
- study-conditions: concentration: 1 μM, replicates: in singlicate; n = 1
measure: %Inh
Please format your answer as a value with the unit trailing.

{"chemical-string": "c1ccc(-c2ccc3c(-c4ccnc(Nc5ccc6c(c5)OCCO6)n4)cnn3n2)cc1", "%Inh": "42%"}
{"chemical-string": "O=C(Nc1n[nH]c2nc(-c3ccco3)c(Br)cc12)c1ccc(CN2CCCC2)cc1.O=C(O)[C@H](O)[C@@H](O)C(=O)O", "%Inh": "0%"}
{"chemical-string": "CS(=O)(=O)CCNCc1nc(-c2ccc3ncnc(Nc4ccc(OCc5cccc(F)c5)c(Cl)c4)c3c2)cs1.Cl", "%Inh": "0%"}

Please fill in: %Inh reported for Cl.c1ccc(Cn2ncc3cc(Nc4ncnc5ccccc45)ccc32)cc1 = 5%

Please fill in: %Inh reported for Nc1nc(-c2cccnc2)c(-c2ccnc3ccccc23)s1 = 0%

Please fill in: %Inh reported for CCC(CC)(CC)n1cnc2c(N)ncnc21 = 14%

Please fill in: %Inh reported for O=C(c1ccc(-c2cc(-c3c[nH]nc3-c3ccccn3)ccn2)cc1)N1CCCC1 = 13%

Please fill in: %Inh reported for Cc1cccc(-c2nc(Nc3ccc4[nH]nnc4c3)c3ccccc3n2)n1 = 0%

Please fill in: %Inh reported for Cc1ccc(NC(=O)c2cccc(C#N)c2)cc1-c1ccc(C(=O)Nc2ccncc2)cc1 = 2%

Please fill in: %Inh reported for O=C(Nc1ccccc1)Nc1ccc(Oc2ccc3nccn3n2)cc1 = 13%

Please fill in: %Inh reported for CCc1nc(-c2cccc(C)c2)c(-c2ccnc(NC(=O)c3ccccc3)c2)s1 = 0%

---

- Tested on: p38-delta
- study-conditions: concentration: 1 μM, replicates: in singlicate; n = 1
Output true (1) for records whose %Inh is lower than 3%, false (0) for records at or above 3%.

Request: A record lists FC(F)(F)c1ccc(-c2cc(-c3c[nH]nc3-c3ccccn3)ccn2)cc1 . Is its %Inh below 3%?
Result: false (0)

Request: A record lists COC(=O)c1c(-c2ccccc2)c2cc(Cl)ccc2c(=O)n1Cc1ccc(S(C)(=O)=O)cc1 . Is its %Inh below 3%?
Result: false (0)

Request: A record lists O=C(Nc1ccccc1)Nc1ccc(Oc2ccc3nccn3n2)cc1 . Is its %Inh below 3%?
Result: true (1)

Request: A record lists Cl.c1ccc(Cn2ncc3cc(Nc4ncnc5ccccc45)ccc32)cc1 . Is its %Inh below 3%?
Result: false (0)

---

- Tested on: AURKB
- study-conditions: concentration: 1 μM, replicates: in singlicate; n = 1
Measured %Inh accompanies every entry in the list below.
Dear colleague, please return just the value in %, with no unit written.

{"compound": "COc1ccc(Nc2nccc(N3CCC(NC(=O)c4cccc(NC(C)=O)c4)C3)n2)cc1 (stereo not shown) [GSK1379732]", "system-name": "AURKB", "uom": "%", "%Inh": 1}
{"compound": "Oc1ccc2ncnc(Nc3ccc(OCc4ccccc4)cc3)c2c1 [GI262866]", "system-name": "AURKB", "uom": "%", "%Inh": 21}
{"compound": "CS(=O)(=O)CCNCc1nc(-c2ccc3ncnc(Nc4ccc(OCc5cccc(F)c5)c(Cl)c4)c3c2)cs1.Cl [GW583340]", "system-name": "AURKB", "uom": "%", "%Inh": 0}

Form: item COc1ccc(NC(=O)c2ccc(-c3cc(-c4nnc(C)o4)ccc3C)cc2)cc1 [GW595885] ; test system AURKB; %Inh: 26

Form: item Cc1cc(N2CCC(NS(=O)(=O)c3ccc(F)cc3)CC2)nc(Nc2cccc(C#N)c2)n1.O=C(O)C(F)(F)F [GSK1653537] ; test system AURKB; %Inh: 0

Form: item Nc1nc(-c2ccccn2)c(-c2ccnc3ccccc23)s1 [GW548057] ; test system AURKB; %Inh: 0

Data origin, for the record: paper PMC5540273
